Molecular target: T1, Npl3 RRM1 (Saccharomyces cerevisiae, UniProt Q01560 114-201)
T1 sequence: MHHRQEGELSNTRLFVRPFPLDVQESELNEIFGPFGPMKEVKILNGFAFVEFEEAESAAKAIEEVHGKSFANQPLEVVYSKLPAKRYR
Assay: NMR titration
REPORTED ENDPOINT: binding result

BINDER | RESULT
GGGGGG (ssDNA) [polyG 6mer] | no binding
CCCCCC (ssDNA) [polyC 6mer] | binds
TTTTTT (ssDNA) [polyT 6mer] | no binding
AAAAAA (ssDNA) [polyA 6mer] | no binding
